System: U251 CNS
assay.overview: NCI-60 one-dose screen, 48 h (100 = growth as untreated, 0 = no growth, -100 = all killed)
study.conditions: 10 µM
Compounds without any hit were thinned out: in the full panel of roughly 83,000, 20% have a hit.

# molecule, growth [%]
rows = [
    ("OCCN1CCOCC1", 108),
    ("Cc1ccncc1C(N)=O", 98.3),
    ("CC(=O)OCCC(C)CCC=C(C)C (stereo not given)", 102),
    ("Cc1cc(Cc2cc(C)c(N)cc2N)c(N)cc1N", 88.9),
    ("CCCC(=O)Nc1ccc2c(c1)CN1C(=O)c3ccccc3C1=N2", 98.6),
    ("CC(=O)Nc1cccc(Cl)c1C", 88.9),
    ("CC1CCCC(CC(N)=O)CC1 (stereo not given)", 99.7),
    ("c1ccc2c(N3CCCCC3)ncnc2c1", 93),
    ("COCCOCCCl", 105),
    ("CCOc1ccc2[nH]c(=S)sc2c1", 106),
    ("Nc1ccc(N)c([N+](=O)[O-])c1", 107),
    ("C#CC(C)(O)c1ccc(Cl)cc1 (stereo not given)", 97.8),
    ("O=C1Cc2cc(O)ccc2O1", 103),
    ("O=C(CS)Nc1ccc2ccccc2c1", 98),
    ("O=[N+]([O-])c1ccc(-c2ncc(-c3ccc(Br)cc3)o2)cc1", 95.8),
    ("CC(=O)Nc1c(C)cc(C)cc1C", 99.3),
    ("Cc1cc(/C=C/c2ccc3cc(N(C)C)ccc3[n+]2C)c(C)n1-c1ccccc1", -11.9),
    ("CC(=O)c1ccc2c(ccc3ccccc32)c1", 92.1),
    ("COC(=O)c1cccnc1", 99.4),
    ("CC1CCC(C(=O)O)N1 (stereo not given)", 96),
    ("Oc1ccccc1O", 82.7),
    ("Cc1cc(O)ccc1O", 107),
    ("CCOC(=O)Nc1cc2c(c(N)n1)N=C(c1ccccc1)CO2", 21.8),
    ("NC(CSC(c1ccccc1)(c1ccccc1)c1ccccc1)C(=O)O (stereo not given)", 14.1),
    ("CO[C@H]1C[C@@H]2CC[C@@H](C)[C@@](O)(O2)C(=O)C(=O)N2CCCC[C@H]2C(=O)O[C@H]([C@H](C)C[C@@H]2CC[C@@H](O)[C@H](OC)C2)CC(=O)[C@H](C)C=C(C)[C@@H](O)[C@@H](OC)C(=O)[C@H](C)C[C@H](C)/C=C/C=C/C=C1C", 51.8),
    ("CSc1[nH]c(=O)ncc1F", 100),
    ("Cc1nc2ccccc2c(C(=O)O)c1O", 103),
    ("C/C(O)=C(\\C=N\\C(N)=S)C(=O)Nc1ccccc1", 97.4),
    ("CCCCN(CCCC)CCCO", 116),
    ("COc1ccc(C2OC(N)=C(O)C2=O)cc1OC (stereo not given)", 111),
    ("O=C(c1ccc(O)cc1)c1ccc(O)cc1", 94.1),
    ("O=C1C=C(O)C(=O)C=C1O", 104),
    ("c1ccc(/C(=N\\N=C(/c2ccccc2)c2cccs2)c2cccs2)cc1", 103),
    ("COc1ccccc1N=Nc1c(O)ccc2cc(S(=O)(=O)O)ccc12", 99.5),
    ("O=C(O)C(O)c1ccccc1 (stereo not given)", 103),
    ("CCCOC(=O)C(O)c1ccccc1 (stereo not given)", 115),
    ("CCCCCC(C)(CC(=O)O)CC(=O)O", 102),
    ("CC(=O)Nc1cccc(NC(C)=O)n1", 102),
    ("Cc1nc2ccccc2c2nnc(SCC(=O)N(Cc3ccccc3)c3ccccc3)n12", 98),
    ("CCOC(=O)c1[nH]c(C)c(C(C)=O)c1C", 91.2),
    ("CC(=O)OC1CC2C(C)(C)OC3CC(=O)OCC32C2CCC3(C)C(=CCC3c3ccoc3)C12C (stereo not given)", 107),
    ("CN(C)c1ccc(S(=O)(=O)O)cc1", 108),
    ("O=C(O)c1cccc([N+](=O)[O-])c1O", 101),
    ("Cc1cccc(CO)c1", 94.5),
    ("CCCCCCCCOC(=O)c1ccccn1", 110),
    ("Cc1ccc(Cl)cc1N1C(=O)CC(Sc2ccccc2N)C1=O (stereo not given)", 102),
    ("CCOC(=O)c1cc(/C=C/c2cccc(Cl)c2)on1", 87.5),
    ("Cc1ccc(C(=O)N/N=C/c2ccc3c(c2)OCO3)cc1", 101),
    ("OCC1OC(OC2C(O)C(CO)OC2(CO)OC2OC(CO)C(O)C(O)C2O)C(O)C(O)C1O (stereo not given)", 109),
    ("COC(=O)/C=C\\C(=O)OC", 105),
    ("CC(=O)c1ccc(C(C)(C)C)cc1", 99.6),
    ("C#C[C@H]1CCCCCC1O (stereo not given in full)", 99.7),
    ("O=C(CN1CCNCC1)N1CCOCC1", 106),
    ("CCOC(=O)C1OC1c1ccccc1 (stereo not given)", 98.7),
    ("CCS(=O)(=O)c1cc(=O)[nH]c(=O)[nH]1", 93.8),
]

====

System: SR leukemia
assay.overview: NCI-60 one-dose screen, 48 h
study.conditions: 10 µM
About 83,000 compounds went through this panel and 20% of them were active in at least one assay; those are over-represented in the sample as a whole. Activity calls are given as the source filed them. Rule for the calls: active = growth percent below 10; inactive = the rest.
Outcomes: 1.0 = active, 0.0 = inactive

# compound, cat
records = [
    ("CC(=O)Oc1ccc(Br)cc1C(=O)O", 0.0),
    ("Cc1nc2ccccc2c2nnc(SCC(=O)N(Cc3ccccc3)c3ccccc3)n12", 0.0),
    ("Cc1cc(N2CCC(N3CCCC3)CC2)nc(/N=C(\\N)Nc2ccc(Cl)c(Cl)c2)n1", 1.0),
    ("O=[N+]([O-])c1ccccc1N=Nc1ccc(O)cc1O", 0.0),
    ("COc1cc(C2c3cc4c(cc3C3OC(=O)C2C3CO)OCO4)cc(OC)c1OC (stereo not given)", 1.0),
    ("O=C(O)c1ccnc(Br)c1", 0.0),
    ("O=C(O)[C@@H]1[C@H]2C[C@H]3c4[nH]c5ccccc5c4CCN3C[C@@H]2CC[C@@H]1O", 0.0),
    ("CN(c1ccccc1)c1ncnc2c1ncn2C", 0.0),
    ("CC1C(=O)c2ccccc2CC1C(=O)O (stereo not given)", 0.0),
    ("CC(C)OC(=O)c1cc(NC(=S)OC(C)C)ccc1Cl", 0.0),
    ("CCO/C=C1\\SC(=S)N(c2cccc(C)c2)C1=O", 0.0),
    ("O=C(O)CCCC(=O)O", 0.0),
    ("CCCCCCCCCCC1CO1 (stereo not given)", 0.0),
    ("CC(=O)OCC(=O)[C@@]1(O)CC[C@H]2[C@@H]3CC[C@@H]4C[C@H](O)CC[C@]4(C)[C@H]3C(=O)C[C@@]21C", 0.0),
    ("O=[N+]([O-])c1ccc(Sc2ccncn2)c([N+](=O)[O-])c1", 0.0),
    ("CCOC(=O)C1=C(Nc2ccc(Br)cc2)C(=O)N(CC)C1", 0.0),
    ("OCC(O)C(O)C(O)C(O)/C=N/O (stereo not given)", 0.0),
    ("O=P(O)(O)OCC(O)CO (stereo not given)", 0.0),
    ("Nc1ccc(N=Nc2ccc(O)cc2)c(N)n1", 0.0),
    ("CCOC(=O)CCCC(=O)OCC", 0.0),
]

====

System: OVCAR-5 ovarian
assay.overview: NCI-60 one-dose screen, 48 h
study.conditions: 10 µM
Compounds without any hit were thinned out: in the full panel of roughly 83,000, 20% have a hit. Active and inactive are the calls of the source. The calls were made as follows: active = growth percent below 10; inactive = the rest.
Outcomes: yes for active, no for inactive

# compound, cat
data = [
    ("CO[C@H]1C[C@@H]2CC[C@@H](C)[C@@](O)(O2)C(=O)C(=O)N2CCCC[C@H]2C(=O)O[C@H]([C@H](C)C[C@@H]2CC[C@@H](O)[C@H](OC)C2)CC(=O)[C@H](C)C=C(C)[C@@H](O)[C@@H](OC)C(=O)[C@H](C)C[C@H](C)/C=C/C=C/C=C1C", "yes"),
    ("COc1cc2nn(-c3ccccc3N)nc2cc1OC", "no"),
    ("CC1CCC(C(=O)O)N1 (stereo not given)", "no"),
    ("Cc1ccc(/C=C2\\SC(=S)N(c3ccc(F)cc3)C2=O)o1", "no"),
    ("Cc1cc(NC(=O)CSCC(=O)O)no1", "no"),
]

====

Tested on: T-47D breast
assay.overview: NCI-60 one-dose screen, 48 h (100 = growth as untreated, 0 = no growth, -100 = all killed)
study.conditions: 10 µM
The panel holds about 83,000 compounds, 20% with a hit somewhere; the sample as a whole holds those more often.

# molecule, unit.name, growth
data = [
    ("CC(=O)OCC1=CC2OC(=O)C3=COC(OC4OC(CO)C(O)C(O)C4O)C1C32 (stereo unspecified)", "%", 105),
    ("Cc1cccc(C(=O)N(C(C)C)C(C)C)c1", "%", 83.9),
    ("O=C(Cc1ccc(OCc2ccccc2)cc1)NCc1ccc2c(c1)OCO2", "%", 86.2),
    ("Oc1ccccc1-c1nnco1", "%", 82),
    ("CC1CCC(C(=O)O)N1 (stereo unspecified)", "%", 86.4),
    ("C=C[Si](OC(C)=O)(OC(C)=O)OC(C)=O", "%", 93.6),
    ("O=c1[nH]c(O)c(/C=C2/C=Nc3ccccc32)[nH]1", "%", 85.5),
    ("Nc1ccc(C(=O)c2ccc(N)c(Br)c2)cc1Br", "%", 43.5),
    ("Cc1cc(C(O)(c2ccc(Nc3ccccc3)cc2)c2ccc(Nc3ccc(S(=O)(=O)O)cc3)cc2)ccc1N (stereo unspecified)", "%", -5.86),
    ("O=C(O)CCCC(=O)O", "%", 128),
    ("Cc1cc2ccccc2c(O)c1C#N", "%", 88.8),
    ("c1cc[n+](C2c3ccccc3C([n+]3ccccc3)c3ccccc32)cc1 (stereo unspecified)", "%", 75.5),
    ("CC(C)=NNC(N)=S", "%", 44.1),
    ("C1CNC(C2=NCCN2)=N1", "%", 101),
    ("Cc1ccc(Cl)cc1N1C(=O)CC(Sc2ccccc2N)C1=O (stereo unspecified)", "%", 103),
    ("CCOC(=O)C(CCC(C)C)C(=O)OCC", "%", 100),
    ("CC1C(=O)c2ccccc2CC1C(=O)O (stereo unspecified)", "%", 102),
    ("CC1Cc2ccccc2O1 (stereo unspecified)", "%", 104),
    ("C=CCNC(=O)c1ccc(OC)cc1", "%", 103),
    ("O=C(CCl)N1CCN(C/C=C/c2ccccc2)CC1", "%", 83.8),
    ("O=C(/C=C/C(=O)c1ccccc1)c1ccccc1", "%", 92.4),
]
